method description: Preclinical pharmacokinetics in monkeys
Type: in vivo, Cynomolgus monkey
particulars: male, cynomolgus, cynomolgus monkey, in vivo, po, 30 mg/kg
readout name: Tmax

Lookup: Please look at this compound and report its Tmax: CS(=O)(=O)O.C[C@H](NCc1ccc(-c2ccc(C(F)(F)F)cc2)cc1)C(N)=O
Found: 4 to 6 h

###

method description: Preclinical pharmacokinetics in mice
Format: in vivo, mouse
particulars: in vivo; ICR mouse, 5 mg/kg single oral administration
readout name: half-life (h)
Supply the numeric figure in h, leaving out any unit text.

Lookup: Please look at this compound and report its half-life: CS(=O)(=O)O.C[C@H](NCc1ccc(-c2ccc(C(F)(F)F)cc2)cc1)C(N)=O
Found: 4.2

###

method description: Preclinical pharmacokinetics in monkeys
Type: in vivo, Cynomolgus monkey
particulars: male, cynomolgus, cynomolgus monkey, in vivo, po, 30 mg/kg
readout name: AUC(0-t) (ng·h/mL)
Supply the numeric figure in ng·h/mL, leaving out any unit text.

Lookup: Please look at this molecule and report its AUC(0-t): CS(=O)(=O)O.C[C@H](NCc1ccc(-c2ccc(C(F)(F)F)cc2)cc1)C(N)=O
Found: 80800

###

method description: in vivo
Parameters: species or system SD Rat
particulars: Sprague-Dawley, rat, po, 9 mg/kg
readout name: AUC (ng·h/mL)
Supply the numeric figure in ng·h/mL, leaving out any unit text.

Lookup: Please look at this compound and report its AUC: CS(=O)(=O)O.C[C@H](NCc1ccc(-c2ccc(C(F)(F)F)cc2)cc1)C(N)=O [KDS2010]
Found: 3000

###

method description: Preclinical pharmacokinetics in monkeys
particulars: cynomolgus monkey, in vivo, iv, 5 mg/kg
readout name: AUC(0-inf) (ng·h/mL)
Supply the numeric figure in ng·h/mL, leaving out any unit text.

Lookup: Please look at this compound and report its AUC(0-inf): CS(=O)(=O)O.C[C@H](NCc1ccc(-c2ccc(C(F)(F)F)cc2)cc1)C(N)=O [KDS2010]
Found: 17900

###

method description: in vivo
Set-up: species or system SD Rat
particulars: Sprague-Dawley, rat, po, 9 mg/kg
readout name: half-life (h)
Supply the numeric figure in h, leaving out any unit text.

Lookup: Please look at this compound and report its half-life: CS(=O)(=O)O.C[C@H](NCc1ccc(-c2ccc(C(F)(F)F)cc2)cc1)C(N)=O [KDS2010]
Found: 10.8

###

method description: Preclinical pharmacokinetics in mice
Format: in vivo, mouse
particulars: in vivo; ICR mouse, 10 mg/kg single oral administration
readout name: AUC(0-inf) (ng·h/mL)
Supply the numeric figure in ng·h/mL, leaving out any unit text.

Lookup: Please look at this compound and report its AUC(0-inf): CS(=O)(=O)O.C[C@H](NCc1ccc(-c2ccc(C(F)(F)F)cc2)cc1)C(N)=O [KDS2010]
Found: 7920

###

method description: in vivo
particulars: Sprague-Dawley, rat, po
readout name: MTD (mg/kg)
Supply the numeric figure in mg/kg, leaving out any unit text.

Lookup: Please look at this compound and report its MTD: CS(=O)(=O)O.C[C@H](NCc1ccc(-c2ccc(C(F)(F)F)cc2)cc1)C(N)=O
Found: 700

###

method description: Preclinical pharmacokinetics in mice
Format: in vivo, mouse
particulars: in vivo; ICR mouse, 5 mg/kg single oral administration
readout name: AUC(0-inf) (µg·h/mL)
Supply the numeric figure in µg·h/mL, leaving out any unit text.

Lookup: Please look at this molecule and report its AUC(0-inf): CS(=O)(=O)O.C[C@H](NCc1ccc(-c2ccc(C(F)(F)F)cc2)cc1)C(N)=O [KDS2010]
Found: 4.18

###

method description: Preclinical pharmacokinetics in monkeys
Assay type: in vivo, Cynomolgus monkey
particulars: male, cynomolgus monkey, in vivo, po, 30 mg/kg
Experimental: In a pharmacokinetic study, plasma PK parameters were measured after a single oral administration of […] dose group and at 4 to 6 hours after administration in the 30 mg/kg dose group. In the elimination phase, the […] Systemic exposure (AUClast) to the test substance was 30587 and 80770 ng*hr/mL, respectively. […]
readout name: CL/F (mL/min/kg)
Supply the numeric figure in mL/min/kg, leaving out any unit text.

Lookup: Please look at this compound and report its CL/F: CS(=O)(=O)O.C[C@H](NCc1ccc(-c2ccc(C(F)(F)F)cc2)cc1)C(N)=O
Found: 2.58
